target: T1, hK1 (human tissue kallikrein 1), recombinant (human, UniProt P06870 25-262); test: SPR
T1 construct: Expressed in P. pastoris from KLK1 cDNA and purified; enzymatically active; also called KLK1; Recombinant (Pichia) Kallikrein
koff values, listed per item
State the value with its unit after it.

Illustrative cases are given below, each with its answer.
{"binder": "M0116-E08 (Fab, V domains shown) VH: EVQLLESGGGLVQPGGSLRLSCAASGFTFSRYPMIWVRQAPGKGLEWVSVIYPSGGMTKYADSVKGRFTISRDNSKNTLYLQMNSLRAEDTAVYYCARVGSYGSLGYWGQGTLVTVSS VL: DIQMTQSPSSLSASVGDRVTITCLASQSISSYLNWYQQKPGKAPKLLIYDASSLESGVPSRFSGSGSGTDFTLTISSLQPEDFAIYYCQQFNGYPPITFGQGTRLEIKR", "observed": "0.0164 s⁻¹"}
{"binder": "M0104-B12 (Fab, V domains shown) VH: EVQLLESGGGLVQPGGSLRLSCAASGFTFSIYAMIWVRQAPGKGLEWVSSIYSSGGPTQYADSVKGRFTISRDNSKNTLYLQMNSLRAEDTAVYYCARGRRTYYYDSSGYYKYAAFDIWGQGTMVTVSS VL: DIQMTQSPSSLSASVGDRVTITCRASQAISNYLAWYQQQPGKVPKLLISAASTLQSGVPSRFSGSGSGTDFTLSISSLQPEDVATYYCQTYYSVPFTFGPGTKVDFKR", "observed": "0.00171 s⁻¹"}
{"binder": "M0131-D01 (Fab, V domains shown) VH: EVQLLESGGGLVQPGGSLRLSCAASGFTFSHYNMNWVRQAPGKGLEWVSVIYPSGGQTHYADSVKGRFTISRDNSKNTLYLQMNSLRAEDTAVYYCARRGIWHSFDIWGQGTMVTVSS VL: DIQMTQSPGTLSLSPGERASLSCRASQSVSSNYLSWYQQKPGQAPRLLIYGTSNRASGIPVRFSGSGSGTDFTLTISRLEPEDFAVYYCQQYGGAPLFIFGPGTRVDIKR", "observed": "0.000325 s⁻¹"}
{"binder": "M0115-G12 (Fab, V domains shown) VH: EVQLLESGGGLVQPGGSLRLSCAASGFTFSPYFMEWVRQAPGKGLEWVSGISSSGGNTLYADSVKGRFTISRDNSKNTLYLQMNSLRAEDTAVYYCARDRFGNYYGSGSKLQHDAFDIWGQGTMVTVSS VL: DIQMTQSPVTLSLSPGDRATLSCRASQSVSFNLAWYQHKPGQAPRLLMFDASNRATGIPDRFSGSGSGTDFTLTIKRLEPEDFAVYYCQQYGTSPFTFGPGTNVDVKR", "observed": "0.000865 s⁻¹"}

Proceeding to the next binder to report its koff.
Inquiry: What does the record list as koff for M0095-G09 (Fab, V domains shown) VH: EVQLLESGGGLVQPGGSLRLSCAASGFTFSNYNMHWVRQAPGKGLEWVSVIYPSGGYTVYADSVKGRFTISRDNSKNTLYLQMNSLRAEDTAVYYCARRGNWGGIDYWGQGTLVTVSS VL: DIQMTQSPSSLSASVGDRVTITCRASQSISNWLAWYQQKPGKAPKLLIYKASTLQTGVPSRFSGSGSGTEFSLTISSLQPDDFATYYCQQTYSAPFNFGPGTKVDIKR ?
Reply text: 0.0934 s⁻¹

Cited source: patent US7329737
